The entries below come with measured Residual turnover values attached.
System: Pseudomonas fluorescens HPPD polypeptide (wild-type and mutants)
procedure.details: Coupled HPPD activity assay: turnover and residual turnover in crude HPPD polypeptide extracts with and without Cmpd. 1
Format: biochemical
recorded.conditions: presence of 100 μM Cmpd. 1; changes in absorbance (OD) at 320 nm in the coupled assay, 30 min
# answer = number (no unit)

Worked examples follow.
[[record]]
molecule = "SEQ ID NO:33 (protein, mutant HPPD polypeptide) MADLYENPMGLMGFEFIEFASPTPGTLEPIFEIMGFTKVATHRSKNVHLYRQGEINLILNNEPNSIASYFAAEHGPSVCGMAFRVKDSQKAYNRALELGAQPIHIDTGPMELNLPAIKGIGGAPLYLIDRFGEGSSIYDIDFVYLEGVERNPVGAGLKVIDHLTHNVYRGRMVYWANFYEKLFNFREARYFDIKGEYTGLTSKAMSAPDGMIRIPLNEESSKGAGQIEEFLMQFNGEGIQHVAFLTDDLVKTWDALKKIGMRFMTAPGDEYYEMLEGRLPDHGEPVDQLQARGILLDGSSVEGDKRLLLQIFSERLMGPVFFEFIQRKGDDGFGPHSFKVLFESMERDQVRRGVLTAD"
quantity_measured = "Residual turnover"
val = 0.014

[[record]]
molecule = "SEQ ID NO:16 (protein, mutant HPPD polypeptide) MADLYENPMGLMGFEFIEFASPTPGTLEPIFEIMGFTKVATHRSKNVHLYRQGEINLILNNEPNSIASYFAAEHGPSVCGMAFRVKDSQKAYNRALELGAQPIHIDTGPMELNLPAIKGIGGAPLYLIDRFGEGSSIYDIDFVYLEGVERNPVGAGLKVIDHLTHNVYRGRMVYWANFYEKLFNFREARYFDIKGEYTGLTSKAMSAPDGMIRIPLNEESSKGAGQIEEFLMQFNGEGIQHVAFLTDDLVKTWDALKKIGMRFMTAPGDEYYEMLEGRLPDHGEPVDQLQARGILLDGSSVEGDKRLLLQIFSERLMGPVFFEFIQRKGDDGFGPDSFKVLFESMERDQVRRGVLTAD"
quantity_measured = "Residual turnover"
val = 0.083

[[record]]
molecule = "SEQ ID NO:47 (protein, mutant HPPD polypeptide) MADLYENPMGLMGFEFIEFASPTPGTLEPIFEIMGFTKVATHRSKNVHLYRQGEINLILNNEPNSIASYFAAEHGPSVCGMAFRVKDSQKAYNRALELGAQPIHIDTGPMELNLPAIKGIGGAPLYLIDRFGEGSSIYDIDFVYLEGVERNPVGAGLKVIDHLTHNVYRGRMVYWANFYEKLFNFREARYFDIKGEYTGLTSKAMSAPDGMIKIPLNEESSKGAGQIEEFLMQFNGEGIQHVAFLTDDLVKTWDALKKIGMRFMTAPGDEYYEMLEGRLPDHGEPVDQLQARGILLDGSSVEGDKRLLLQIFSERLMGPVFFEFIQRKGDDGFGPDSFKVLFESIERDQVRRGVLTAD"
quantity_measured = "Residual turnover"
val = 0.061

[[record]]
molecule = "SEQ ID NO:5 (protein, mutant HPPD polypeptide) MADLYENPMGLMGFEFIEFASPTPGTLEPIFEIMGFTKVATHRSKNVHLYRQGEINLILNNEPNSIASYFAAEHGPSVCGMAFRVKDSQKAYNRALELGAQPIHIDTGPMELNLPAIKGIGGAPLYLIDRFGEGSSIYDIDFVYLEGVERNPVGAGLKVIDHLTHNVYRGRMVYWANFYEKLFNFREARYFDIKGEYTGLTSKAMSAPDGMIRIPLNEESSKGAGQIEEFLMQFNGEGIQHVAFLTDDLVKTWDALKKIGMRFMTAPGDEYYEMLEGRLPDHGEPVDQLQARGILLDGSSVEGDKRLLLQIFSERLMGPVFFEFIQRKGDDGFGPDSFKVLFESIERDQVRRGVLTAD"
quantity_measured = "Residual turnover"
val = 0.071

[[record]]
molecule = "SEQ ID NO:50 (protein, mutant HPPD polypeptide) MADLYENPMGLMGFEFIEFASPTPGTLEPIFEIMGFTKVATHRSKNVHLYRQGEINLILNNEPNSIASYFAAEHGPSVCGMAFRVKDSQKAYNRALELGAQPIHIDTGPMELNLPAIKGIGGAPLYLIDRFGEGSSIYDIDFVYLEGVERNPVGAGLKVIDHLTHNVYRGRMVYWANFYEKLFNFREARYFDIKGEYTGLTSKAMSAPDGMIKIPLNEESSKGAGQIEEFLMQFNGEGIQHVAFLTDDLVKTWDALKKIGMRFMTAPGDEYYEMLEGRLPDHGEPVDQLQARGILLDGSSVEGDKRLLLQIFSETLMGPVFFEFIQRKGDDGFGPHSFKVLFESIERDQVRRGVLTAD"
quantity_measured = "Residual turnover"
val = 0.148

[[record]]
molecule = "SEQ ID NO:36 (protein, mutant HPPD polypeptide) MADLYENPMGLMGFEFIEFASPTPGTLEPIFEIMGFTKVATHRSKNVHLYRQGEINLILNNEPNSIASYFAAEHGPSVCGMAFRVKDSQKAYNRALELGAQPIHIDTGPMELNLPAIKGIGGAPLYLIDRFGEGSSIYDIDFVYLEGVERNPVGAGLKVIDHLTHNVYRGRMVYWANFYEKLFNFREARYFDIKGEYTGLTSKAMSAPDGMIRIPLNEESSKGAGQIEEFLMQFNGEGIQHVAFLTDDLVKTWDALKKIGMRFMTAPGDEYYEMLEGRLPDHGEPVDQLQARGILLDGSSVEGDKRLLLQIFSEQLMGPVFFEFIQRKGDDGFGPHSFKVLFEQMERDQVRRGVLTAD"
quantity_measured = "Residual turnover"
val = 0.162


Consider now this further molecule.
Inquiry: For the molecule shown here, SEQ ID NO:9 (protein, mutant HPPD polypeptide) MADLYENPMGLMGFEFIEFASPTPGTLEPIFEIMGFTKVATHRSKNVHLYRQGEINLILNNEPNSIASYFAAEHGPSVCGMAFRVKDSQKAYNRALELGAQPIHIDTGPMELNLPAIKGIGGAPLYLIDRFGEGSSIYDIDFVYLEGVERNPVGAGLKVIDHLTHNVYRGRMVYWANFYEKLFNFREARYFDIKGEYTGLTSKAMSAPDGMIRIPLNEESSKGAGQIEEFLMQFNGEGIQHVAFLTDDLVKTWDALKKIGMRFLTAPGDEYYEMLEGRLPDHGEPVDQLQARGILLDGSSVEGDKRLLLQIFSETLMGPVFFEFIQRKGDDGFGPDSFKVLFESIERDQVRRGVLTAD , give the reported Residual turnover.
Reply text: 0.071
